Test system: T1, cynomolgus monkey BCMA (cynomolgus monkey, UniProt A0A2K5UD97 1-53)
T1 construct: Soluble analyte in SPR; construct not described; also called cyBCMA; Cyno BCMA
T1 sequence (A0A2K5UD97 entry or part of it): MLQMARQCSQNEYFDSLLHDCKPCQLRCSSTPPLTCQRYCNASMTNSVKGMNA
Assay comment: SPR, IgG on chip, cyBCMA analyte
Measured attribute: koff (s⁻¹)
Answer in s⁻¹, number only, no unit symbol.

Need koff, item COMBO_Rd4_0.6nM_C23 (antibody, V domains shown, IgG) VH: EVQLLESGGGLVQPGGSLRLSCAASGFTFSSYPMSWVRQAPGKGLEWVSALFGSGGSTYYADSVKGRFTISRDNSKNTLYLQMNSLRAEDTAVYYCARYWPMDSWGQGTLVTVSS VL: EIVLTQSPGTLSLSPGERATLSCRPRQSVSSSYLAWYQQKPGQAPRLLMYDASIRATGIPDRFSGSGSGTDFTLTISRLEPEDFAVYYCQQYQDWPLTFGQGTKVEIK
0.000531

Need koff, item C01_Rd4_6nM_C12 (antibody, V domains shown, IgG; also called PC1C12) VH: EVQLLESGGGLVQPGGSLRLSCAASGFTFSSYPMSWVRQAPGKGLEWVSAIGGSGGWSYYADSVKGRFTISRDNSKNTLYLQMNSLRAEDTAVYYCARYWPMDSWGQGTLVTVSS VL: EIVLTQSPGTLSLSPGERATLSCWLSQSVSSTYLAWYQQKPGQAPRLLIYDASSRAPGIPDRFSGSGSGTDFTLTISRLEPEDFAVYYCQQYSEWPLTFGQGTKVEIK
0.0037

The origin of these recorded values is patent US20190241669A1.
